# target: c-Met kinase (recombinant c-Met) (Homo sapiens)
# Construct: 0.27 nM recombinant c-Met
# experimental-details: In vitro kinase assay I (homogeneous time-resolved fluorescence tyrosine kinase assay)
pIC50: −log10 of the molar value.
A collection of compounds and their measured pIC50

compound	pIC50
CC(c1cccc(-c2ncc(-c3cnn(C)c3)cn2)c1)c1nn(-c2ccc(F)c(F)c2)ccc1=O (single isomer, unassigned) [Example 238]	6.00 to 7.00
CCn1cc(-n2ccc(=O)c(C(C)c3cccc(-c4ncc(OC5CCOC5)cn4)c3)n2)cn1 (single isomer, unassigned)	> 7.00
CN(C)C(=O)CCn1cnc(-c2cccc(Cc3nn(-c4cnn(C)c4)ccc3=O)c2)n1	6.00 to 7.00

* * *

# target: c-Met kinase (recombinant c-Met) (Homo sapiens, UniProt P08581)
# Construct: 0.27 nM recombinant c-Met
# Sequence (P08581 25-1390): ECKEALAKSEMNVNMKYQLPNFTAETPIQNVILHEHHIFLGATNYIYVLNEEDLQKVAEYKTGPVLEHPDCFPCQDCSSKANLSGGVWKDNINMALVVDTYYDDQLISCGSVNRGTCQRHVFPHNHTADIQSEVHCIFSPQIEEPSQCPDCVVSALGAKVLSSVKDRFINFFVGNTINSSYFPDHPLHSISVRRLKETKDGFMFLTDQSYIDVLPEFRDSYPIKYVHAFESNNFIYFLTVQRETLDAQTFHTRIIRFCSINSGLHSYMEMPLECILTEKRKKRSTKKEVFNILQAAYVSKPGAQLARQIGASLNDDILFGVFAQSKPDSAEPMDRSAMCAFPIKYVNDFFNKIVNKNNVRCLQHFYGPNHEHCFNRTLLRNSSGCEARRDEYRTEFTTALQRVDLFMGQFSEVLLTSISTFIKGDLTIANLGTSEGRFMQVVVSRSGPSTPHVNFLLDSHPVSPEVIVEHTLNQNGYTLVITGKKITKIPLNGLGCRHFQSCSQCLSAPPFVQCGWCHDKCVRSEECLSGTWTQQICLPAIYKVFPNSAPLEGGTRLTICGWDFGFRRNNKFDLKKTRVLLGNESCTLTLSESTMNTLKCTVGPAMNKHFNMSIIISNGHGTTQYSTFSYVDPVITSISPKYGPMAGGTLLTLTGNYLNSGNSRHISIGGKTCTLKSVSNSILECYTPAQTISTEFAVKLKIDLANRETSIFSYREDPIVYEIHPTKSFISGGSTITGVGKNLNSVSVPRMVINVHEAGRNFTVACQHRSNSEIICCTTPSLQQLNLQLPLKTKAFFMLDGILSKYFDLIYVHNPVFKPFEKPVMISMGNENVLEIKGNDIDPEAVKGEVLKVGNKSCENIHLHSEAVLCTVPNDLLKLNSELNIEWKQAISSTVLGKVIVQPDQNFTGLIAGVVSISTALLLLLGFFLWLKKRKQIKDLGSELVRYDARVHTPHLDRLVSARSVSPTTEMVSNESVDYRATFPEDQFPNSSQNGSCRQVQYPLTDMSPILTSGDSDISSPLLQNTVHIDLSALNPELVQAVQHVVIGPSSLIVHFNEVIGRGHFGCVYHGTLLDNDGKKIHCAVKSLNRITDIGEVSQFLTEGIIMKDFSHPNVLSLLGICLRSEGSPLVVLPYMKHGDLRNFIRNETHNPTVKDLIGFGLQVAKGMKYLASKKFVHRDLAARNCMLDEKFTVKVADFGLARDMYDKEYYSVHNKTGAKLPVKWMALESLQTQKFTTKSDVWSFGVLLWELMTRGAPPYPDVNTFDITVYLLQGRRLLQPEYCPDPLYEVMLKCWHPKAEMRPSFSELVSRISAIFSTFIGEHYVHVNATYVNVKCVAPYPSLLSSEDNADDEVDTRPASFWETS
# experimental-details: In vitro kinase assay I (homogeneous time-resolved fluorescence tyrosine kinase assay)
A collection of molecules and their measured IC50

molecule	IC50
Cn1cc(-n2ccc(=O)c(Cc3cccc(NC(=O)NCc4ccccc4)c3)n2)cn1	< 100 nM
Cn1cc(-n2ccc(=O)c(Cc3cccc4[nH]ncc34)n2)cn1	1000 to 3000 nM
CCn1cc(-n2ccc(=O)c(Cc3cccc(-c4ncc(OCC5CCN(C(=O)OC(C)(C)C)CC5)cn4)c3)n2)cn1	< 100 nM
CCn1cc(-n2ccc(=O)c(Cc3cccc(-c4ncc(OCC5CCCO5)cn4)c3)n2)cn1 (racemic)	< 100 nM
CCCOC(=O)Nc1cccc(Cc2nn(-c3cccc(C#N)c3)ccc2=O)c1	< 100 nM
CCOc1cnc(-c2cccc(C(C)c3nn(-c4cnn(CC)c4)ccc3=O)c2)nc1 (single isomer, unassigned) [Example 246]	< 100 nM
CC(c1cccc(-c2ncc(OC(C)C(C)(C)O)cn2)c1)c1nn(-c2cnn(C)c2)ccc1=O (single isomer, unassigned) [Example 385]	< 100 nM
CCOC(=O)Nc1cccc(Cc2nn(-c3cnn(CCO)c3)ccc2=O)c1	< 100 nM
CC(C)COC(=O)Nc1cccc(Cc2nn(-c3cnn(C4CCOC4)c3)ccc2=O)c1 (racemic)	< 100 nM
Cn1cc(-n2ccc(=O)c(Cc3cccc(-c4ncc(CN5CCC(N)CC5)cn4)c3)n2)cn1	< 100 nM
CCOC(=O)Nc1cccc(C(F)c2nn(-c3ccc(Cl)cc3)ccc2=O)c1 (racemic)	100 to 1000 nM
Cn1cc(-n2ccc(=O)c(Cc3cccc(-c4ncc(N)cn4)c3)n2)cn1	< 100 nM
O=C(Nc1cccc(Cc2nn(-c3cc(F)cc(F)c3)ccc2=O)c1)OCC1CCCOC1 (racemic)	< 100 nM
Cn1cc(-n2ccc(=O)c(Cc3cccc(-c4ncc(C5=CCOC5)cn4)c3)n2)cn1	< 100 nM
Cn1cc(-n2ccc(=O)c(Cc3cccc(-c4ncc(CN5CCC(F)C5)cn4)c3)n2)cn1 (racemic)	< 100 nM
Cn1cc(-n2ccc(=O)c(Cc3cccc(-c4ncc(OCC(F)(F)CN5CCOCC5)cn4)c3)n2)cn1	< 100 nM
CC(C)COC(=O)Nc1cccc(Cc2nn(-c3ccc(-c4cnn(C)c4)cc3)ccc2=O)c1	100 to 1000 nM
Cc1noc(C)c1-c1cnc(-c2cccc(Cc3nn(-c4cnn(C)c4)ccc3=O)c2)nc1	100 to 1000 nM
Cn1cc(-n2ccc(=O)c(Cc3cccc(-c4ncc(N5CCCCC5)cn4)c3)n2)cn1	< 100 nM
COCCN1CCC(COC(=O)Nc2cccc(Cc3nn(-c4cc(F)cc(F)c4)ccc3=O)c2)C1 (racemic)	< 100 nM
Cn1cc(-n2ccc(=O)c(Cc3cccc(NC(=O)OCCO)c3)n2)cn1	< 100 nM
Cn1cc(-n2ccc(=O)c(Cc3cccc(-c4nnn(C)n4)c3)n2)cn1	100 to 1000 nM
COCCOc1cnc(-c2cccc(Cc3nn(-c4ccc(C#N)c(F)c4)ccc3=O)c2)nc1	< 100 nM
CCn1cc(-n2ccc(=O)c(Cc3cccc(-c4ncc(OCC5(C)COC5)cn4)c3)n2)cn1	< 100 nM
O=C(Nc1cccc(Cc2nn(-c3cc(F)c(F)c(F)c3)ccc2=O)c1)OCC1CCOCC1	< 100 nM
CC(C)CNC(=O)Nc1cccc(Cc2nn(-c3cnn(C)c3)ccc2=O)c1	< 100 nM
CCn1cc(-n2ccc(=O)c(C(C)c3cccc(-c4ncc(OCC5(C)COC5)cn4)c3)n2)cn1 (single isomer, unassigned)	< 100 nM
O=c1ccn(-c2ccc(Cl)cc2)nc1Cc1ccc2ncccc2c1	100 to 1000 nM
CCn1cc(-n2ccc(=O)c(Cc3cccc(-c4ncc(OCC5CCN(C)CC5)cn4)c3)n2)cn1	< 100 nM
Cc1cnc(-c2cccc(Cc3nn(-c4cnn(C)c4)ccc3=O)c2)s1	< 100 nM
Cn1cc(-n2ccc(=O)c(Cc3cccc(NC(=O)OCCC(C)(C)O)c3)n2)cn1	< 100 nM

Where do the numbers come from? From patent US20120264735A1.
